Tested on: Staphylococcus sp.
Assay: in vitro antibacterial evaluation, MIC by broth dilution
Assay type: cell-based
Settings: broth dilution, 18 hours at 35° C.; strain GC 4546
Numbered stars: 1 amine (or outer) side, 2 acyl side, 3 side chain; on linkers, the order of the positions; unused ones are H or OH. Square brackets hold non-standard residues; d marks the D form. Peptide text beside a SMILES is read from it. * marks the point of attachment. ξ: configuration not given here. X1 = N=C1NCC(C(O)C(N[*:1])C(=O)[*:2])N1C1OC(CO)C(O)C(O)C1O; ξEnduracididine(βξ-OH,4'ξ) = N=C1NCC(C(O)C(N)C(=O)O)N1; X2 = OCC1OC(OC2C(CO)OC(*)C(O)C2O)C(O)C(O)C1O; Diphenylacetyl = O=C(C(c1ccccc1)c1ccccc1)*; ξPhe(βξ-Me) = CC(c1ccccc1)C(N)C(=O)O
Listed here are compounds together with their documented MIC Staphylococcus haemolyticus (GC 4546).

Previously resolved entries follow.
compound	resultValue
COc1cccc(C2OC3C(OC4C(CO)OC(Oc5ccc(CC6NC(=O)C(C(C)c7ccccc7)NC(=O)CNC(=O)C(CO)NC(=O)C(C(O)C7CNC(=N)N7C7OC(CO)C(O)C(O)C7O)NC(=O)C(C(O)C7CNC(=N)N7)NC6=O)cc5)C(O)C4O)OC(CO)C(O)C3O2)c1 (single isomer, unassigned) [Example 137b]	8 µg/mL
COc1ccc2cc(COC3C(CO)OC(OC4C(CO)OC(Oc5ccc(CC6NC(=O)C(C(C)c7ccccc7)NC(=O)CNC(=O)C(CO)NC(=O)C(CC7CNC(=N)N7C7OC(CO)C(O)C(O)C7O)NC(=O)C(CC7CNC(=N)N7)NC6=O)cc5)C(O)C4O)C(O)C3O)ccc2c1 (stereo not drawn) [Example 245a]	1 µg/mL

Query :: May I ask what MIC Staphylococcus haemolyticus (GC 4546) has been recorded for CC(c1ccccc1)C1NC(=O)CNC(=O)C(CO)NC(=O)C(C(O)C2CNC(=N)N2C2OC(CO)C(O)C(O)C2O)NC(=O)C(C(O)C2CNC(=N)N2)NC(=O)C(Cc2ccc(OC3OC(CO)C(OC4OC(CO)C(O)C(O)C4OCc4ccc(OCc5ccccc5)cc4)C(O)C3O)cc2)NC1=O (stereo not drawn) [Example 231b] ?
Result :: 4 to 32 µg/mL

Query :: Thanks! And CC(C)C(=O)OCC1OC(OC2C(CO)OC(Oc3ccc(CC4NC(=O)C(Cc5ccccc5)NC(=O)CNC(=O)C(CO)NC(=O)C(C(O)C5CNC(=N)N5C5OC(CO)C(O)C(O)C5O)NC(=O)C(C(O)C5CNC(=N)N5)NC4=O)cc3)C(O)C2O)C(O)C(O)C1O (stereo not drawn) [Example 283a] ?
Result :: 64 µg/mL

Query :: Thanks! And CC(c1ccccc1)C1NC(=O)CNC(=O)C(COC(=O)C(c2ccccc2)c2ccccc2)NC(=O)C(C(O)C2CNC(=N)N2C2OC(CO)C(O)C(O)C2O)NC(=O)C(C(O)C2CNC(=N)N2)NC(=O)C(Cc2ccc(OC3OC(CO)C(OC4OC(CO)C(O)C(O)C4O)C(O)C3O)cc2)NC1=O (stereo not drawn) [Example 96a] (cyclo(G[ξPhe(βξ-Me)]Y(X2)[ξEnduracididine(βξ-OH,4'ξ)][X1]S(Diphenylacetyl)); configuration not given here) ?
Result :: 128 µg/mL

Query :: Thanks! And CC(c1ccccc1)C1NC(=O)CNC(=O)C(CO)NC(=O)C(C(O)C2CNC(=N)N2C2OC(CO)C(O)C(O)C2O)NC(=O)C(C(O)C2CNC(=N)N2)NC(=O)C(Cc2ccc(OC3OC(CO)C(OC4OC5COC(c6ccc7ccccc7c6)OC5C(O)C4O)C(O)C3O)cc2)NC1=O (stereo not drawn) [Example 145] ?
Result :: <0.5 µg/mL
